- Protocol: Intrinsic clearance in human liver microsomes
- Assay type: ADME, Microsome
- Experimental conditions: read-out: CLH
Would you mind labelling by microsomal CLint? At or over 30 µL/min/mg is true (1), under is false (0).

1. O=C(OC(C(F)(F)F)C(F)(F)F)N1CCN(Cc2ccc(Cl)cc2N2CCCC2)CC1    true (1)

Determine whether this molecule has microsomal CLint no lower than 30 µL/min/mg: O=C(OC(C(F)(F)F)C(F)(F)F)N1CCN(Cc2cccc(Cl)c2N2CCOCC2)CC1
true (1)

Record O=C(OC(C(F)(F)F)C(F)(F)F)N1CCN(Cc2ccc(C(F)(F)F)cc2N2CCCC2)CC1 ; criterion: microsomal CLint no lower than 30 µL/min/mg. Met?
false (0)

Has O=C(OC(C(F)(F)F)C(F)(F)F)N1CCN(Cc2ccc(C(F)(F)F)cc2N2CCOCC2)CC1 a recorded microsomal CLint greater than or equal to 30 µL/min/mg?
false (0)

Hello, I need to know if O=C(OC(C(F)(F)F)C(F)(F)F)N1CCN(Cc2ccc(Cl)cc2N2CCOCC2)CC1 has measured microsomal CLint not below 30 µL/min/mg. Thanks!
true (1)
